The origin of these recorded values is patent US20170008888A1.

targetOrTestSystem: ERK5 (Homo sapiens, UniProt Q13164)
Construct: screened for activity against several kinases in Jurkat cells; endogenous in cells; host or cells: Jurkat cell lysate
Sequence (Q13164 whole entry): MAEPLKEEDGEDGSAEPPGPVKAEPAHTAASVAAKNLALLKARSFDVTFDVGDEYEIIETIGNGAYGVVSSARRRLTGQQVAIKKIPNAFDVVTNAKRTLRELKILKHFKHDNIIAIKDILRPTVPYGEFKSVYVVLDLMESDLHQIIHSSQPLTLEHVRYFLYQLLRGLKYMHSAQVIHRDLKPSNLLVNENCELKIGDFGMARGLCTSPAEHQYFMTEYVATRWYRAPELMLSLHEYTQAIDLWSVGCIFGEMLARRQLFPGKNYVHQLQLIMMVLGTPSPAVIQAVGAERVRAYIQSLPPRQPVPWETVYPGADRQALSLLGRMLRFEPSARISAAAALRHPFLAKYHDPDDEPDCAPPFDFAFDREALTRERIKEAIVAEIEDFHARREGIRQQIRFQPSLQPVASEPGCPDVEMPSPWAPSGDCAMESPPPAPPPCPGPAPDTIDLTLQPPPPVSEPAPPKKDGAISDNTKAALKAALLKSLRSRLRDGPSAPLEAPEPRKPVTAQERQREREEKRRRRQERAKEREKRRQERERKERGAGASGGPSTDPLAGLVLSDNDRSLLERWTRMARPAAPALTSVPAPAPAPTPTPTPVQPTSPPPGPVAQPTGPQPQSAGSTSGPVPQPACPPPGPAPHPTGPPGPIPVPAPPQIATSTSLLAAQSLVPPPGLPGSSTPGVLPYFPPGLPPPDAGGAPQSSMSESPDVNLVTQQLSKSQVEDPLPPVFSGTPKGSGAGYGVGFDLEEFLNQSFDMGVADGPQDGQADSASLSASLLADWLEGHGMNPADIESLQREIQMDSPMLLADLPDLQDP
protocol: Probe-based (AX9989 acyl phosphate ATP probe) kinase profiling in Jurkat lysate: ERK5
Assay type: binding
cond: screening concentration 0.1 μM; read-out: Kinase inhibition % at indicated screening concentration: ERK5
molecules and their reported inhibition at 0.1 µM

// known answers, use as guide
{"columns": ["molecule", "inhibition at 0.1 µM"],
 "data": [
  ["CCOc1cc(C(=O)N2CC[C@@H](N3CCCC3)C2)ccc1Nc1cc2c(cn1)N(C)C(=O)c1ccccc1N2C [Compound 24]", "> 90%"],
  ["COc1cc(C(=O)N2CCC(N(C)C)C2)c(F)cc1Nc1cc2c(cn1)N(C)C(=O)c1ccccc1N2C (stereo not shown) [Compound 90]", "≤ 35%"]
]}

Prompt line: Please tell me: inhibition at 0.1 µM of CCOc1cc(C(=O)N2CCC[C@H](O)C2)ccc1Nc1cc2c(cn1)N(C)C(=O)c1ccccc1N2C [Compound 96] , system ERK5 (Homo sapiens, UniProt Q13164)?
Response line: > 90%

Prompt line: Record CCOc1cc(C(=O)N2CCCC(N)C2)ccc1Nc1cc2c(cn1)N(C)C(=O)c1occc1N2C (stereo not shown) [Compound 113] : what is its inhibition at 0.1 µM with ERK5 (Homo sapiens, UniProt Q13164)?
Response line: > 90%

Prompt line: Record lookup: for ERK5 (Homo sapiens, UniProt Q13164), what inhibition at 0.1 µM belongs to CCOc1cc(C(N)=O)ccc1Nc1cc2c(cn1)N(C)C(=O)c1ccccc1N2C [Compound 51] ?
Response line: 35 to 50%

Prompt line: Find inhibition at 0.1 µM (ERK5 (Homo sapiens, UniProt Q13164)) for the entry COc1cc(C(=O)N2CCC(N(C)C)C2)ccc1Nc1cc2c(cn1)N(C)C(=O)c1ccccc1N2C (stereo not shown) [Compound 70]
Response line: 50 to 75%

Prompt line: Form field - read-out: inhibition at 0.1 µM; system: ERK5 (Homo sapiens, UniProt Q13164); submitted item: CCOc1cc(C(=O)N2CCC(N3CCCC3)C2)ccc1Nc1cc2c(cn1)N(C)C(=O)c1occc1N2C (stereo not shown) [Compound 15]
Response line: 75 to 90%

---

Quick reference: Kd of the listed items.
targetOrTestSystem: BRD7 (Homo sapiens, UniProt Q9NPI1)
Construct: T7 phage strains displaying bromodomains were grown in parallel
Sequence (Q9NPI1 131-235 limits assumed): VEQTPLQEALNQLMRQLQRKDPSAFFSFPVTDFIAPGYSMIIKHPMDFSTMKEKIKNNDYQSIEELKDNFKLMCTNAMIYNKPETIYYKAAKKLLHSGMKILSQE
protocol: Bromodomain binding assay: BRD7
Procedure: T7 phage strains displaying bromodomains were grown in parallel in 24-well blocks in an E. coli host derived from the BL21 strain. E. coli were grown to log-phase and infected with T7 phage from a frozen stock (multiplicity of infection=0.4) and incubated with shaking at 32° C. until lysis (90-150 minutes). The lysates were centrifuged (5,000×g) and filtered (0.2 μm) to remove cell debris. […] The bromodomain concentration in the eluates was measured by qPCR. […]

{"columns": ["structureSmilesString", "measurementType", "measuredResult"],
 "data": [
  ["CCOc1cc(C(=O)N2CCC(N3CCCC3)CC2)ccc1Nc1cc2c(cn1)N(C)C(=O)c1ccccc1N2C", "Kd", "> 20 µM"]
]}

API: the following record is the query input.
Prompt line: Item under review: CCOc1cc(C(=O)N[C@H]2CC[C@H](O)CC2)ccc1Nc1cc2c(cn1)N(C)C(=O)c1ccccc1N2C . Reported Kd?
Response line: > 20 µM

---

Recorded pIC50 values for a group of molecules are listed next.
targetOrTestSystem: recombinant human ERK5 catalytic domain (Homo sapiens, UniProt Q13164)
Construct: Recombinant human ERK5 catalytic domain radiometric assays; purchased Reaction Biology, Corp (Malvern, Pa.), which ran the assay as a service
Sequence (Q13164 55-347 limits assumed): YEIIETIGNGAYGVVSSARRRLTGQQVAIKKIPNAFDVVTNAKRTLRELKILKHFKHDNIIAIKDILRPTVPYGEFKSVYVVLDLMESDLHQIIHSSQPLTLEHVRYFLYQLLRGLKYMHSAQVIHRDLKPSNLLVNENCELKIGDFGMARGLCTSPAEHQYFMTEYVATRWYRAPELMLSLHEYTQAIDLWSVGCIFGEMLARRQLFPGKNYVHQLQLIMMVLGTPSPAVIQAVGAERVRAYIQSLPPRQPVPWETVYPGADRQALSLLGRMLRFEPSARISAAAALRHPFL
protocol: Recombinant human ERK5 radiometric (HotSpot) assay
Format: biochemical
cond: 10 μM ATP, 20 μM myelin basic protein substrate; read-out: rhERK5 IC50
pIC50: −log10 of the molar value.

Please review the following examples before continuing.
{"columns": ["structureSmilesString", "pIC50"],
 "data": [
  ["C[C@@H]1C[C@H](Nc2cc3c(cn2)N(C)C(=O)c2ccccc2N3C)CC[C@H]1O", "< 6.70"],
  ["CN1C(=O)c2ccccc2N(C)c2cc(N[C@H]3CC[C@H](N4CCCS4(=O)=O)CC3)ncc21", "6.70 to 7.30"]
]}

Prompt line: Request the reported pIC50 associated with CN1C(=O)c2ccccc2Sc2cc(N[C@H]3CC[C@H](O)CC3)ncc21
Response line: < 6.70

Prompt line: Return reported pIC50; argument: CN1C(=O)c2cccc(F)c2Oc2cc(N[C@H]3CC[C@H](O)CC3)ncc21
Response line: < 6.70

---

targetOrTestSystem: BAZ2B (Homo sapiens, UniProt Q9UIF8)
Construct: T7 phage strains displaying bromodomains were grown in parallel; made in house; host or cells: E. coli host derived from BL21, infected with T7 phage
Sequence (Q9UIF8 2060-2164 limits assumed, species assumed): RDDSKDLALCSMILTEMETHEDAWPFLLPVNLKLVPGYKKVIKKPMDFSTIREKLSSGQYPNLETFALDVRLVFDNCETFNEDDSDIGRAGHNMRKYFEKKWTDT
protocol: Bromodomain binding assay: BAZ2B
pKd: −log10 of the molar value.
Reported pKd is given for each of the following compounds.

{"columns": ["compound", "measurementType", "measuredResult"],
 "data": [
  ["CCOc1cc(C(=O)N[C@H]2CC[C@H](O)CC2)ccc1Nc1cc2c(cn1)N(C)C(=O)c1ccccc1N2C [Compound T62]", "pKd", "< 4.70"]
]}

Prompt line: # input compound: CCOc1cc(C(=O)N2CCC(N3CCCC3)CC2)ccc1Nc1cc2c(cn1)N(C)C(=O)c1ccccc1N2C [Compound 46] ; wanted: its pKd
Response line: < 4.70

---

Let's look at some molecules and their measured IC50.
targetOrTestSystem: ERK5 (Homo sapiens)
Construct: screened for activity against several kinases in Jurkat cells; endogenous in cells; host or cells: Jurkat cell lysate
protocol: Probe-based (AX9989 acyl phosphate ATP probe) kinase profiling in Jurkat lysate: ERK5
Assay type: binding
cond: calculated from percent inhibition of AX9989 labeling and the screening concentration; Jurkat lysate
Experimental: In this example, potency of the compounds as ERK5 inhibitors was assessed, and the compounds were screened for activity against several kinases in Jurkat cells. […] Kinase active site peptides were identified and quantified using LC/MS. Percent inhibition was calculated as the normalized decrease in the ESI-MS fragment intensities of probe-labeled peptides in samples incubated with the test compound compared to those without. […]

{"columns": ["molecule", "IC50"],
 "data": [
  ["CCOc1cc(C(N)=O)ccc1Nc1cc2c(cn1)N(C)C(=O)c1ccccc1N2C [Compound 51]", "0.101 to 0.5 µM"],
  ["CCOc1cc(C(=O)NCCO)ccc1Nc1cc2c(cn1)N(C)C(=O)c1ccccc1N2C [Compound 66]", "> 0.5 µM"],
  ["CCOc1cc(C(=O)N2CCC(NC)C2)ccc1Nc1cc2c(cn1)N(C)C(=O)c1occc1N2C (centres unmarked) [Compound 43]", "≤ 0.05 µM"],
  ["CCOc1cc(C(=O)Nc2ccncc2)ccc1Nc1cc2c(cn1)N(C)C(=O)c1ccccc1N2C [Compound 7]", "> 0.5 µM"],
  ["CCOc1cc(C(=O)N2CCN(C(=O)OC(C)(C)C)C[C@@H]2C)ccc1Nc1cc2c(cn1)N(C)C(=O)c1ccccc1N2C [Compound 50]", "0.101 to 0.5 µM"],
  ["CCOc1cc(C(=O)N2CCOCC2)ccc1Nc1cc2c(cn1)N(C)C(=O)c1ccccc1N2C [Compound 111]", "≤ 0.05 µM"],
  ["CN1C(=O)c2ccccc2N(C)c2cc(NC3CCC(N)CC3)ncc21 (centres unmarked) [Compound 79]", "0.101 to 0.5 µM"]
]}

Lab note: next molecule to report on.
Prompt line: Quick check: IC50 on ERK5 (Homo sapiens), item CCOc1cc(C(=O)N2CCNCC2)ccc1Nc1cc2c(cn1)N(C)C(=O)c1ccccc1N2C [Compound 62] ?
Response line: ≤ 0.05 µM

---

Tested on: human CD4+ T cells
protocol: Cytokines produced by human CD4+ T cells stimulated with PMA/ionomycin
Type: cell-based
cond: 10 μM compound, PMA/ionomycin 20 h, read-out: Percent inhibition of IL-10 (relative to DMSO control)
measurementType: inhibition at 10 µM (%)
Give a bare numeral; the unit % is implied.

Worked examples follow.
{"columns": ["structureSmilesString", "unitsText", "inhibition at 10 µM"],
 "data": [
  ["CCOc1cc(C(=O)N2CCC(N3CCN(C)CC3)CC2)ccc1Nc1cc2c(cn1)N(C)C(=O)c1occc1N2C", "%", 98],
  ["CCOc1cc(C(=O)N2CCC(N3CCN(C)CC3)CC2)ccc1Nc1cc2c(cn1)N(C)C(=O)c1ccccc1N2C", "%", 97.6],
  ["CCOc1cc(C(=O)N2CCNCC2)ccc1Nc1cc2c(cn1)N(C)C(=O)c1ccccc1N2C", "%", 97.2],
  ["CCOc1cc(C(=O)NCC2CC2)ccc1Nc1cc2c(cn1)N(C)C(=O)c1ccccc1N2C", "%", 97.7]
]}

Next, consider the following compound.
Prompt line: I would be grateful if you could share the reported inhibition at 10 µM for CCOc1cc(C(=O)N2CCC(N3CCCC3)CC2)ccc1Nc1cc2c(cn1)N(C)C(=O)c1ccccc1N2C .
Response line: 97.3
